Sourced from PubChem BioAssay (NCI)

Test system: TK-10 renal
EXPERIMENT_DESCRIPTION: NCI-60 one-dose screen, 48 h
TEST_PARAMETERS: 10 µM unless noted
Compounds without any hit were thinned out: in the full panel of roughly 83,000, 20% have a hit. Activity calls are given as the source filed them. How the source made its calls: active means growth percent below 10; inactive means the rest.
Labels: yes (1) = active, no (0) = inactive

- MOLECULE: "C#CCOC(=O)[C@]1(C)CCC[C@]2(C)[C@H]3C[C@H]4C(C(C)C)=C[C@]3(CC[C@H]21)[C@@H]1C(=O)CCC(=O)[C@@H]14"
  TESTED_TARGET: "TK-10 renal"
  DISCRETE_LABEL: "no (0)"
- MOLECULE: "C#C[C@@]1(O)[C@@H](CO)O[C@@H](n2cc(Cl)c3c(N)ncnc32)[C@@H]1O"
  TESTED_TARGET: "TK-10 renal"
  DISCRETE_LABEL: "yes (1)"
- MOLECULE: "C=C1C(=O)O[C@H]2[C@H]1CC/C(COC(=O)Nc1nc3ccccc3[nH]1)=C\\CC[C@@]1(C)O[C@@H]21"
  TESTED_TARGET: "TK-10 renal"
  DISCRETE_LABEL: "no (0)"
- MOLECULE: "Nc1c(C(=O)c2ccccc2)sc2nc(-c3cc4ccccc4o3)cc(-c3ccc(Cl)cc3)c12"
  TESTED_TARGET: "TK-10 renal"
  DISCRETE_LABEL: "no (0)"
- MOLECULE: "O=C1CCC23OC(C(O)c4ccccc4N12)C1C(Br)=NOC13 (configuration not stated)"
  TESTED_TARGET: "TK-10 renal"
  DISCRETE_LABEL: "no (0)"
- MOLECULE: "Cc1cc(Nc2nc(SCc3ccc(C(=O)Nc4ccc(F)cc4N)cc3)nn3cccc23)n[nH]1"
  TESTED_TARGET: "TK-10 renal"
  DISCRETE_LABEL: "no (0)"
- MOLECULE: "C=C1C(=O)O[C@H]2[C@H]1CC/C(COC(=O)CCC(=O)OC/C1=C/CC[C@@]3(C)O[C@H]3[C@H]3OC(=O)C(=C)[C@@H]3CC1)=C\\CC[C@@]1(C)O[C@@H]21"
  TESTED_TARGET: "TK-10 renal"
  DISCRETE_LABEL: "no (0)"
- MOLECULE: "C=C1C(=O)O[C@H]2[C@H]1CCC(/C=N/c1ncc(Br)cc1N)=C\\CC[C@@]1(C)O[C@@H]21"
  TESTED_TARGET: "TK-10 renal"
  DISCRETE_LABEL: "yes (1)"
- MOLECULE: "CN(C)c1ccc(-c2ccc3[nH]c(=O)nc(-c4ccc(F)cc4)c3c2)cn1"
  TESTED_TARGET: "TK-10 renal"
  DISCRETE_LABEL: "no (0)"
- MOLECULE: "COc1ccc2nc3c(n2c1)C(=O)C(=O)c1ccccc1-3"
  TESTED_TARGET: "TK-10 renal"
  DISCRETE_LABEL: "no (0)"
- MOLECULE: "COC(=O)c1nc(-c2ccccc2)oc1S(=O)(=O)n1nc(C)cc1N"
  TESTED_TARGET: "TK-10 renal"
  DISCRETE_LABEL: "no (0)"
- MOLECULE: "Cc1nccc2c3ccc(OCc4cn(-c5ccc(Br)cc5)nn4)cc3n(CC(C)C)c12"
  TESTED_TARGET: "TK-10 renal"
  DISCRETE_LABEL: "no (0)"
- MOLECULE: "O=C(Nc1nc(-c2ccccc2Cl)cs1)c1cc(-c2ccc(Br)cc2)nc2ccccc12"
  TESTED_TARGET: "TK-10 renal"
  DISCRETE_LABEL: "no (0)"
- MOLECULE: "COc1cc(C2=NN(C(C)=O)C(c3cccc(Nc4ccnc5cc(C(F)(F)F)ccc45)c3)C2)cc(OC)c1OC (configuration not stated)"
  TESTED_TARGET: "TK-10 renal"
  DISCRETE_LABEL: "no (0)"
- MOLECULE: "CCOC(=O)c1c(C)nc2c(c1N)/C(=C/c1ccc[nH]1)C(=O)N2Cc1ccc(C(F)(F)F)cc1"
  TESTED_TARGET: "TK-10 renal"
  DISCRETE_LABEL: "no (0)"
- MOLECULE: "CSc1nc(-c2ccc(F)cc2)c(C#N)c(N2CCOCC2)n1"
  TESTED_TARGET: "TK-10 renal"
  DISCRETE_LABEL: "no (0)"
- MOLECULE: "C=C1C(=O)O[C@H]2[C@H]1CC/C(COC(=O)c1cc3ccccc3o1)=C\\CC[C@@]1(C)O[C@@H]21"
  TESTED_TARGET: "TK-10 renal"
  DISCRETE_LABEL: "no (0)"
- MOLECULE: "COCCOC(=O)COc1ccc(OC)cc1"
  TESTED_TARGET: "TK-10 renal"
  DISCRETE_LABEL: "no (0)"
- MOLECULE: "O=C1CS/C(=N/c2nnc(-c3ccc(O)cc3)s2)N1"
  TESTED_TARGET: "TK-10 renal"
  DISCRETE_LABEL: "no (0)"
- MOLECULE: "CC1CCN(CCCCCOc2ccc3oc4ccccc4c(=O)c3c2)CC1"
  TESTED_TARGET: "TK-10 renal"
  DISCRETE_LABEL: "no (0)"
- MOLECULE: "C=CCn1c(SCC(=O)Nc2ccc(C(=O)/C=C/c3ccc(Cl)cc3)cc2)nnc1-c1cc(OC)c(OC)c(OC)c1"
  TESTED_TARGET: "TK-10 renal"
  DISCRETE_LABEL: "no (0)"
- MOLECULE: "NS(=O)(=O)c1ccc(-n2ncc(NC(=O)Nc3ccc(S(=O)(=O)Nc4nccs4)cc3)c2-c2ccccc2)cc1"
  TESTED_TARGET: "TK-10 renal"
  DISCRETE_LABEL: "no (0)"
- MOLECULE: "N#Cc1ccc(Oc2ccc3ccc(=O)oc3c2)cc1"
  TESTED_TARGET: "TK-10 renal"
  DISCRETE_LABEL: "no (0)"
- MOLECULE: "O=C(Nc1ccc(S(=O)(=O)NC2CCCCCC2)cc1)C(c1ccccc1)S(=O)(=O)c1ccc(F)cc1 (configuration not stated)"
  TESTED_TARGET: "TK-10 renal"
  DISCRETE_LABEL: "yes (1)"
- MOLECULE: "CC(=O)Nc1nc2c(c(N)c1C#N)C(c1cccc(Cl)c1)C1=C(CCCC1=O)N2c1sc2c(c1C#N)CCCC2 (configuration not stated)"
  TESTED_TARGET: "TK-10 renal"
  DISCRETE_LABEL: "no (0)"
- MOLECULE: "O=C(CCCC(=O)Nc1ccc(-n2nnc3cc(Cl)c(Cl)cc32)cc1)Nc1ccc(-n2nnc3cc(Cl)c(Cl)cc32)cc1"
  TESTED_TARGET: "TK-10 renal"
  DISCRETE_LABEL: "no (0)"
- MOLECULE: "COc1cc(-c2csc(NC(=O)Nc3ccc(C(F)(F)F)cc3)n2)cc(OC)c1OC"
  TESTED_TARGET: "TK-10 renal"
  DISCRETE_LABEL: "yes (1)"
- MOLECULE: "COc1cc(C(=O)N2CCN(c3ccccc3OC)CC2)c(NC(=O)c2cnccn2)cc1OCc1ccccc1"
  TESTED_TARGET: "TK-10 renal"
  DISCRETE_LABEL: "no (0)"
- MOLECULE: "COc1cc(F)c(-c2nc3c(C)cccc3n2Cc2c(F)cccc2F)c(F)c1"
  TESTED_TARGET: "TK-10 renal"
  DISCRETE_LABEL: "no (0)"
- MOLECULE: "S=C(Nc1ccccc1)c1ccccn1"
  TESTED_TARGET: "TK-10 renal"
  DISCRETE_LABEL: "no (0)"
- MOLECULE: "CCOC(=O)c1sc(/N=C2\\NC(=O)/C(=C/c3ccc(N4CCN(C)CC4)cc3)S2)nc1C"
  TESTED_TARGET: "TK-10 renal"
  DISCRETE_LABEL: "no (0)"
- MOLECULE: "CCC[S@@](=O)c1ccc2nc(NC(=O)OC)[nH]c2c1"
  TESTED_TARGET: "TK-10 renal"
  DISCRETE_LABEL: "no (0)"
- MOLECULE: "COc1cccc2c1-c1ccccc1C2=O"
  TESTED_TARGET: "TK-10 renal"
  DISCRETE_LABEL: "no (0)"
- MOLECULE: "COc1ccc2c(c1)Oc1nc(N)c(C#N)c(N)c1C2Sc1ccc(O)cc1 (configuration not stated)"
  TESTED_TARGET: "TK-10 renal"
  DISCRETE_LABEL: "no (0)"
- MOLECULE: "Nc1ccccc1NS(=O)(=O)c1ccc(Cl)cc1"
  TESTED_TARGET: "TK-10 renal"
  DISCRETE_LABEL: "no (0)"
- MOLECULE: "C=C(C)[C@@H]1CC[C@]2(C(=O)O)CC[C@]3(C)[C@H](CC[C@@H]4[C@@]5(C)C[C@@H](CC#Cc6ccc(Cl)cc6)C(=O)C(C)(C)[C@@H]5CC[C@]43C)[C@@H]12"
  TESTED_TARGET: "TK-10 renal"
  DISCRETE_LABEL: "no (0)"
- MOLECULE: "N#Cc1ccc(N2Cc3cc(Cl)ccc3OC3=C2C(=O)N(Cc2ccccc2)C3=O)cc1"
  TESTED_TARGET: "TK-10 renal"
  DISCRETE_LABEL: "yes (1)"
